Below are pKi values for Aurora kinase A (Homo sapiens) collected from several publications.
pKi: −log10 of the molar value.

Examples with answers:
{"compound": "Cc1cc(Nc2nc(Sc3ccc(NC(=O)C(C)C)cc3)nc3ccccc23)n[nH]1", "readout-type": "pKi", "result": "> 7.00"}
{"compound": "CCn1cc(Nc2ncc(F)c(N[C@@H]3[C@H]4CC[C@H](C4)[C@@H]3C(N)=O)n2)cn1.CCn1cc(Nc2ncc(F)c(N[C@H]3[C@@H]4CC[C@@H](C4)[C@H]3C(N)=O)n2)cn1 (mixture of isomers)", "readout-type": "pKi", "result": "> 7.00"}
{"compound": "Cc1cc(Nc2cc(-c3ccccc3)nc(Oc3ccc(NC(=O)C4CC4)cc3)n2)n[nH]1", "readout-type": "pKi", "result": "6.00 to 7.00"}
{"compound": "Cc1cnc2c(-c3cc(NC4CCN(Cc5ccccc5)C4)ncn3)c(N)nn2c1 (stereo not shown)", "readout-type": "pKi", "result": "5.30 to 6.30"}
{"compound": "COc1ccc(C2=NNC(=O)/C2=N\\Nc2ccc(N3CCOCC3)cc2)cc1OC", "readout-type": "pKi", "result": "> 7.00"}
{"compound": "Cn1cc(Nc2ncc(C(F)(F)F)c(N[C@H]3[C@@H](C(N)=O)C[C@H]4C[C@@H]3C4(C)C)n2)cn1", "readout-type": "pKi", "result": "> 7.00"}

Enquiry: Answer with the recorded pKi for the compound listed here: Cc1cc(Nc2n[nH]c3ccccc23)nc(-c2ccccc2C(F)(F)F)n1
Return: 4.70 to 6.00
